molecular target: T1, human GPC3 (human, UniProt P51654 25-563); test: SPR
T1 construct: range 25-563; soluble analyte; also called soluble human GPC3; glypican 3
T1 sequence (P51654 25-563 limits assumed): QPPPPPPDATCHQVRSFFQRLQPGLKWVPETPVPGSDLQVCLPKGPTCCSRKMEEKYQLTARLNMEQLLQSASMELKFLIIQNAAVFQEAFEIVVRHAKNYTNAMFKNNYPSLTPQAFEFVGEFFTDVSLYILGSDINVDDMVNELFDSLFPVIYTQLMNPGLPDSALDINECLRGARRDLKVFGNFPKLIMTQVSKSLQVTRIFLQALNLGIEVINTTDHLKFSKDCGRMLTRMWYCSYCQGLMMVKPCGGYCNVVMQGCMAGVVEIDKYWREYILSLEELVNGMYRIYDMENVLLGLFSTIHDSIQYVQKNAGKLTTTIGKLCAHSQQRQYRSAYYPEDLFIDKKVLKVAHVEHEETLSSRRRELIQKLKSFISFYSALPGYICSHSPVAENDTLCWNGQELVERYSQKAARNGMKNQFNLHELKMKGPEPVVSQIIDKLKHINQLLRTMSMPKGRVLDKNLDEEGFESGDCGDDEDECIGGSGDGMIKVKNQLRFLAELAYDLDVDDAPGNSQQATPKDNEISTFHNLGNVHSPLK
Reported log10(Kd) by item:
Response schema: value (number) is log10 of Kd in units of nM.

Some solved cases for reference:
{"binder": "GCH054-G1dh/none-Hi-Kn010G3/L0212-k0 (antibody, V domains shown, one-arm) VH: QVQLVQSGAEVKKPGASVTVSCKASGYTFTDYEMHWIRQPPGEGLEWIGAIDGETPDTAYSEKFKGRVTLTADKSTSTAYMELSSLTSEDTAVYYCTRFYSYTYWGQGTLVTVSS VL: DIVMTQSPLSLPVTPGEPASISCRPSQSPVHSNRNTYLHWYQQKPGQAPRLLIYKVSNRFSGVPDRFSGSGSGTDFTLKISRVEAEDVGVYYCYQGTQVPYTFGQGTKLEIKR", "observed-value": -0.29}
{"binder": "H0610-G1dh/none-Hi-Kn010G3/L0267-k0 (antibody, V domains shown, one-arm) VH: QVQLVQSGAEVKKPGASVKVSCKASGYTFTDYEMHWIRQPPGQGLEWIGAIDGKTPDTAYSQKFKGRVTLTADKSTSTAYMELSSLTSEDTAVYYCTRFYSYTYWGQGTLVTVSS VL: DIVMTQSPLSLPVTPGEPASISCRPSQSPVHSNRNTYLHWYQQKPGQAPRLLIYKVSNRFSGVPDRFSGSGSGTDFTLKISRVEAEDVGVYYCVQGTQVPYTFGQGTKLEIK", "observed-value": -0.75}
{"binder": "GCH057-G1dh/none-Hi-Kn010G3/L0000-k0 (antibody, V domains shown, one-arm) VH: QVQLVQSGAEVKKPGASVTVSCKASGYTFTDYEMHWIRQPPGEGLEWIGAIDGETPDTAYSEKFEGRVTLTADKSTSTAYMELSSLTSEDTAVYYCTRFYSYTYWGQGTLVTVSS VL: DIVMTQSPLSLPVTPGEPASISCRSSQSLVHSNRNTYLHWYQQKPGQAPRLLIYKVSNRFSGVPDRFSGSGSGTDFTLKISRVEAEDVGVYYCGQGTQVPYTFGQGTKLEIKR", "observed-value": 0.75}
{"binder": "H0610-G1dh/none-Hi-Kn010G3/L0161-k0 (antibody, V domains shown, one-arm) VH: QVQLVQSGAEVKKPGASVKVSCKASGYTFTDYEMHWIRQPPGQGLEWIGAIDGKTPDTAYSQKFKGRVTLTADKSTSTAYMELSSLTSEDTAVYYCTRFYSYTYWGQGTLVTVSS VL: DIVMTQSPLSLPVTPGEPASISCRSSQSLVHSNRNTYLHWYQQKPGQAPRLLIYKVSNRFSGVPDRFSGSGSGTDFTLKISRVEAEDVGVYYCVQGTQVPYTFGQGTKLEIK", "observed-value": -0.01}
{"binder": "GCH010-G1dh/none-Hi-Kn010G3/L0000-k0 (antibody, V domains shown, one-arm) VH: QVQLVQSGAEVKKPGASVKVSCKASGYTFTDYEMHWIRQPPGQGLEWIGAIDGDTPDTAYEQKFKGRVTLTADKSTSTAYMELSSLTSEDTAVYYCTRFYSYTYWGQGTLVTVSS VL: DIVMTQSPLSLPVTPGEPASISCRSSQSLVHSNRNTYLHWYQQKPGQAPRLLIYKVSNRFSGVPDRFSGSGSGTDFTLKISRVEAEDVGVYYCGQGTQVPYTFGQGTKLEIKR", "observed-value": 0.61}

For this binder ( H0610-G1dh/none-Hi-Kn010G3/L0126-k0 (antibody, V domains shown, one-arm) VH: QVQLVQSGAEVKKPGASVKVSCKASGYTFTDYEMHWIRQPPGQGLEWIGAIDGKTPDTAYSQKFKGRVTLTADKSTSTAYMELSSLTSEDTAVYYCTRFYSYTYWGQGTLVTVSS VL: DIVMTQSPLSLPVTPGEPASISCRSSQSLVHSNRNTYLHWYQQKPGQAPRLLIYKVSNRNSGVPDRFSGSGSGTDFTLKISRVEAEDVGVYYCGQGTQVPYTFGQGTKLEIK ), measured log10(Kd) is 0.75
